molecular target: OSGPR78 (Homo sapiens, UniProt P43657, I33V); construct: expressed in transfected cells; host or cells: engineered yeast (GPA1 replaced by G-alpha chimeras, STE3 deleted; Fus1p-LacZ reporters); assay: Yeast Fus1p-LacZ β-galactosidase reporter assay, OSGPR78-transformed yeast; type: cell-based; details: yeast transformed with OSGPR78
Sequence (P43657 whole entry I33V): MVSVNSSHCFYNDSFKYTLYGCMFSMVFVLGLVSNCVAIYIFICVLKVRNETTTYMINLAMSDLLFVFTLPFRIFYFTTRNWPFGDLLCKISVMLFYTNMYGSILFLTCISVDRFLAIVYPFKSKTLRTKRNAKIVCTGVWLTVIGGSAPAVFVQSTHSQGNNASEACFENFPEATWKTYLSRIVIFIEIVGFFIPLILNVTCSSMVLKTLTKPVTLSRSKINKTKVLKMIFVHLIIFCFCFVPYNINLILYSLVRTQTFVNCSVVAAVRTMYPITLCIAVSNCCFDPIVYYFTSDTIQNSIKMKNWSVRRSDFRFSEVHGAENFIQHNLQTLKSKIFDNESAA
REPORTED METRIC: effect on fluorescence (β-galactosidase reporter)

These recorded examples may help you get a feel for the data.
{"columns": ["COMPOUND", "MEAS VALUE"],
 "data": [
  ["CCCCCCCCC=CCCCCCCCC(=O)OCC(O)COP(=O)(O)O (stereo not drawn) [Oleoyl LPA, oleoyl lysophosphatidic acid]", "increase in fluorescence"],
  ["Nc1ncnc2c1ncn2[C@@H]1O[C@H](COP(=O)(O)OP(=O)(O)O)[C@@H](O)[C@H]1O [ADP]", "no effect"],
  ["Nc1ncnc2c1ncn2[C@@H]1O[C@H](COP(=O)(O)OP(=O)(O)OP(=O)(O)O)[C@@H](O)[C@H]1O [ATP]", "no effect"],
  ["CCCCCCCCCCCCCCCC(=O)OC[C@@H](O)COP(=O)(O)O [palmitoyl LPA, palmitoyl lysophosphatidic acid]", "increase in fluorescence"]
]}

Query :: Entry CCCCCCCCCCCCCCCCCC(=O)OC[C@@H](O)COP(=O)(O)O [stearoyl LPA, stearoyl lysophosphatidic acid] has what effect on fluorescence (β-galactosidase reporter)?
Result :: increase in fluorescence

Query :: Can you check CCCCCCCCCCCCCC(=O)OC[C@@H](O)COP(=O)(O)O [myristoyl LPA, myristoyl lysophosphatidic acid] next?
Result :: increase in fluorescence

###

target: endogenous CHO receptor; assay: [35S]-GTPγS binding, parental CHO membranes; settings: 1 nM to 300 nM applied
REPORTED METRIC: EC50 (nM)
Please reply with the bare figure in nM and do not write the unit itself.

Query :: Param readout= EC50; system= endogenous CHO receptor; entry= CCCCCCCCC=CCCCCCCCC(=O)OCC(O)COP(=O)(O)O (stereo not shown) ; returns value.
Result :: 768

###

biological target: OSGPR114 (Homo sapiens, UniProt Q9H1C0); construct: expressed in transfected cells; host or cells: engineered yeast (GPA1 replaced by G-alpha chimeras, STE3 deleted; Fus1p-LacZ reporters); assay: Yeast Fus1p-LacZ β-galactosidase reporter assay, OSGPR114-transformed yeast; format: cell-based; details: yeast transformed with OSGPR114
Sequence (Q9H1C0 whole entry): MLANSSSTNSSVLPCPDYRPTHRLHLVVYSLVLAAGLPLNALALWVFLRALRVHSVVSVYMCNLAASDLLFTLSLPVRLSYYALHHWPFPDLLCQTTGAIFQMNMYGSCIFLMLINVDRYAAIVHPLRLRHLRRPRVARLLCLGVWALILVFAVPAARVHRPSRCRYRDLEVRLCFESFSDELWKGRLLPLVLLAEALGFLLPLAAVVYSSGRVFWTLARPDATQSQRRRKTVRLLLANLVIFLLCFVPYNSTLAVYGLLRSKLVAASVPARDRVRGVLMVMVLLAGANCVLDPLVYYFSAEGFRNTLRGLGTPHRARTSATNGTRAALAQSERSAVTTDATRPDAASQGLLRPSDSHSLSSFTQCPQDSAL
REPORTED METRIC: effect on fluorescence (β-galactosidase reporter)

Worked cases, effect on fluorescence (β-galactosidase reporter) given:
{"columns": ["MOLECULE", "MEAS VALUE"],
 "data": [
  ["Nc1ncnc2c1ncn2[C@@H]1O[C@H](COP(=O)(O)OP(=O)(O)OP(=O)(O)O)[C@@H](O)[C@H]1O", "no effect"],
  ["CCCCCCCCCCCCCC(=O)OC[C@@H](O)COP(=O)(O)O", "increase in fluorescence"],
  ["CCCCCCCCCCCCCCCCCC(=O)OC[C@@H](O)COP(=O)(O)O", "increase in fluorescence"],
  ["Nc1ncnc2c1ncn2[C@@H]1O[C@H](COP(=O)(O)OP(=O)(O)O)[C@@H](O)[C@H]1O", "no effect"],
  ["CCCCCCCCCCCCCCCC(=O)OC[C@@H](O)COP(=O)(O)O", "increase in fluorescence"]
]}

From here, focus on the item given below.
Query :: Need effect on fluorescence (β-galactosidase reporter), item CCCCCCCCC=CCCCCCCCC(=O)OCC(O)COP(=O)(O)O (stereo not drawn)
Result :: increase in fluorescence

Ref: patent US7879566B2
